Target: T1, FCoV nucleocapsid protein N (Feline alphacoronavirus (FCoV/FIPV) …, UniProt P25909 1-377)
T1 sequence: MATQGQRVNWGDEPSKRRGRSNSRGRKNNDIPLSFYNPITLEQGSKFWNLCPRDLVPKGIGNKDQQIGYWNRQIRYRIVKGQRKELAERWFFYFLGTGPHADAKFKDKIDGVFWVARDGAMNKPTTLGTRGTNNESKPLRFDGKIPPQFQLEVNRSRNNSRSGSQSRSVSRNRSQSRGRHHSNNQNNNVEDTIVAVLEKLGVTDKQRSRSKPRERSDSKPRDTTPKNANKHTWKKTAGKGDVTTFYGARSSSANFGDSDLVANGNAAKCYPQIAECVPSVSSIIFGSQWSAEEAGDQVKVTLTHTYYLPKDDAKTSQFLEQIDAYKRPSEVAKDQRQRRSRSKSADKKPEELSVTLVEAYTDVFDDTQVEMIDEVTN
Assay: BLI; 80 mM NaCl; kass 3.195e5 M-1s-1, kdis 5.931e-3 s-1; Filter binding: 40 mM Tris-HCl pH 7.4, 80 mM NaCl (160, 320 in series), 20 mM KCl, 1 mM DTT, room temperature, 30-45 min; BLI: 20 mM Tris-HCl pH 7.4, 80 mM NaCl, 20 mM KCl, 1 mM DTT, room temperature
Conditions: protein: recombinant; tags: C-terminal His (pET-30a(+), NdeI/HindIII); chain copies: 2
TEST READOUT: Kd (nM)
Give just the numeric value; nM need not be written.

## Input Can you look up the measured Kd of ACUUUUAAAGUAAAGUGAGUGUAGCGUGGCUAUAAC (ssRNA) [vRNA 5' NCR (36 nt, biotinylated)] for me?
## Output 18

Source: paper PMC10011503
